This collection of values is drawn from patent US20260258115A1.

System Name: RSV prefusion F (preF), subtype B (respiratory syncytial virus, subtype B)
Test Name: BLI, IgG
Hi! Could you tag entries with Kd below 5 nM as true, and those at or above as false? Much appreciated.

Binder	Group
ADI-14428 (antibody, V domains shown, also called Ab 94) VH: EVQLLESGGGLVKPGGSLRLSCAASGFTFSDHYMSWIRQAPGKGLEWVSYISSTSSFTNYADSLKGRFTISRDNAKNSLYLQMNSLRAEDTAVYYCARPYIVALGTRAFDIWGQGTTVTVSS VL: SYVLTQPPSVSVAPGKTARITCGGNNIGSKTVHWYQQKPGQAPVLVSYYDSDRPSGIPERFSGSNSGNTATLTISRVEAGDEADYYCQVWDGSSEHYVFGTGTKVTVL	false
ADI-21037 (antibody, V domains shown) VH: QVQLVQSGGGVVQPGRSLRLSCAASGFPFSSYAMHWVRQAPGKGLEWVAVIWYPGGEKYSADSVTGRFTISRDNSKNTLYLQMSSLRVEDTAVYYCARRSVGAFDYWGQGTLVTVSS VL: DIQMTQSPLSLPVTPGEPASISCRSSQSLLNSNGYNYLDWYLQKPGQSPQVLIYLGSHRASGVPDRFSGSGSGTDFTLRISRVEAEDVGVYYCMQAVQTPYTFGQGTKVEIK	true
ADI-20973 (antibody, V domains shown) VH: EVQLLESGGGLVKPAGSLRLSCAASGFSFSSYYMNWIRQAPGKGLEWVSDISGGSSYTNYADSVKGRFTVSRDNAKNSVYLQMNSLRGEDTAVYYCARGASTAATYTPTFDYWGQGILVTVSS VL: QPVLTQPPSVSGAPGQRVTISCTGSSSNIGAGYDVHWYQQLPGTAPKLLMFGNNNRPSGVPDRFSGSKSGTSASLAITGLRPEDEADYYCQSYDRRLTVVFGGGTKLTVL	true
ADI-21022 (antibody, V domains shown) VH: EVQLVETGPGLVKPSETLSLTCSVSGGSISSYYWSWLRQPPGKGLEWIGYIYNSGRTNYNPSLRSRVTISVDTSQNQFSLRLGSVTAADTAVYYCARGGAGDDLLRGSYRYLNFWGQGTLVTVSS VL: QSVLTQPPSVSVAPGQTARITCGGNNIGSKSVHWYQQKPGQAPVLVVYDDTERPSGIPERISGSNSGNTATLTISRVEAGDEADYYCQVWDSSSDHPDLLFGGGTKLTVL	false
ADI-14426 (antibody, V domains shown, also called Ab 92) VH: EVQLVESGGGVVQPGRSLRLSCAASGFTFSSFPMHWVRQAPGKGLEWVAVASYDGRNNYYAGSVKGRFTISRDNSKNTLYLQINSLRAEDTAVYYCAREVVIAAHFDYWGQGTLVTVSS VL: SSELTQEPAVSVALGQTVRITCQGDSLRSFYANWYQQKPGQAPILVIYGKNDRPSGIPDRFSGSNSGNTASLTITGAQAEDEADYYCNSRDSSGNHRVFGGGTKVTVL	false
